- system-tested: T1, Cynomolgus CXCR2 (cynomolgus, UniProt Q28519 3-353 (rhesus entry))
- T1 chain: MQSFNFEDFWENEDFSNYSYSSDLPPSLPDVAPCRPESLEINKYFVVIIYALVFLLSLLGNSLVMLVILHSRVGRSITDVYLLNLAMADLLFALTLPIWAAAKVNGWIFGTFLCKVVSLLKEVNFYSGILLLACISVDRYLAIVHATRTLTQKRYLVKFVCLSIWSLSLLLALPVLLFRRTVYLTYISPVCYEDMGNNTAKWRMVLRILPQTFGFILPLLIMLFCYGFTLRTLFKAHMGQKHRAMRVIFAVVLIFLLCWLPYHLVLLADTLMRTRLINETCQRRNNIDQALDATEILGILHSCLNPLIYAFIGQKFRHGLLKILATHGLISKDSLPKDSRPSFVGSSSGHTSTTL
- test-description: cell-based or functional assay
Each item that follows carries a reported FLIPR IC50 (GRO-α induced calcium release).
Your answer is read as nM, so omit the unit and give the number.

Examples from the recorded data:
- CXCR20014 (bispecific antibody, Biparatopic: two VHH joined by a GlySer linker; also called 97A9-35GS-2B2; 97A9-2B2; not shown: C-terminal c-myc tag and His6 tag coded by pAX100) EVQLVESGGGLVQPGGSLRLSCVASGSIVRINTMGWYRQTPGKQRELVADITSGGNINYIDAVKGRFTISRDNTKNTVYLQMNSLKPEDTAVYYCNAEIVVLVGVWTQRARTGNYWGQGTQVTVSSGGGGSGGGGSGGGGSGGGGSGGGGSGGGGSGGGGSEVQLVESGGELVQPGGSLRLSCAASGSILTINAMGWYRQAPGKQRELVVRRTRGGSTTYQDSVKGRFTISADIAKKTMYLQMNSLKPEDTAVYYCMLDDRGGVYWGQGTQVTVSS: 13.7
- CXCR20031 (bispecific antibody, Biparatopic: two VHH joined by a GlySer linker; also called 2B2-35GS-163E3; not shown: C-terminal c-myc tag and His6 tag coded by pAX100) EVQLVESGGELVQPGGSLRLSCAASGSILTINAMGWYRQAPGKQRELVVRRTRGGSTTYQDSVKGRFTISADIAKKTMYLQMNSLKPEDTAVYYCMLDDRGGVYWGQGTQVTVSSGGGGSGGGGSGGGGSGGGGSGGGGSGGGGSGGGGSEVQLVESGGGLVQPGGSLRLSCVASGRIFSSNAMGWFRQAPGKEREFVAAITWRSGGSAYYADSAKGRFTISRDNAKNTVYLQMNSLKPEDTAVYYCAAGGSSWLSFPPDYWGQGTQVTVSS: 4.26
- CXCR20028 (other, Biparatopic: two VHH joined by a GlySer linker; also called 97A9-35GS-54B12; 97A9-54B12; not shown: C-terminal c-myc tag and His6 tag coded by pAX100) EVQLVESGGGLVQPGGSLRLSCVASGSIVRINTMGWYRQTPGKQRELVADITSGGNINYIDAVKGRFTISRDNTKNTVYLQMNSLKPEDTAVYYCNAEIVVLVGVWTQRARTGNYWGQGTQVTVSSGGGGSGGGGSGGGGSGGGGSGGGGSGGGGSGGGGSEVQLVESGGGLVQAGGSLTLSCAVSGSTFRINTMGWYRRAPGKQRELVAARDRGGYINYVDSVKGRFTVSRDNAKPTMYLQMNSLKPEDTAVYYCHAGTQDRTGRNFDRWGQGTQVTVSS: 17
- CXCR20013 (bispecific antibody, Biparatopic: two VHH joined by a GlySer linker; also called 2B2-35GS-97A9; not shown: C-terminal c-myc tag and His6 tag coded by pAX100) EVQLVESGGELVQPGGSLRLSCAASGSILTINAMGWYRQAPGKQRELVVRRTRGGSTTYQDSVKGRFTISADIAKKTMYLQMNSLKPEDTAVYYCMLDDRGGVYWGQGTQVTVSSGGGGSGGGGSGGGGSGGGGSGGGGSGGGGSGGGGSEVQLVESGGGLVQPGGSLRLSCVASGSIVRINTMGWYRQTPGKQRELVADITSGGNINYIDAVKGRFTISRDNTKNTVYLQMNSLKPEDTAVYYCNAEIVVLVGVWTQRARTGNYWGQGTQVTVSS: 29.2

Now turn to the next binder.
# input So what's the measured FLIPR IC50 (GRO-α induced calcium release) for this one? CXCR20025 (bispecific antibody, Biparatopic: two VHH joined by a GlySer linker; also called 163D2-35GS-127D1; not shown: C-terminal c-myc tag and His6 tag coded by pAX100) EVQLVESGGGLVQAGGSLRLSCAASGRTFSDYAMGWFRQAPGKEREFVAAITWNGGRVFYTASVKGRFTISRDNAKNTMYLQMNSLKPEDTAVYYCAADKDRRTDYLGHPVAYWGQGTQVTVSSGGGGSGGGGSGGGGSGGGGSGGGGSGGGGSGGGGSEVQLVESGGGLVQAGESLRLSCAASGSTFDFKVMGWYRQPPGKQREGVAAIRLSGNMHYAESVKGRFTISKANAKNTVYLQMNSLRPEDTAVYYCKVNIRGQDYWGQGTQVTVSS
# output 7.88
